# Assay system: purified DHFR of the multiresistant strain S. aureus 157/4696 (Staphylococcus aureus)
# Assay protocol: Inhibition of purified bacterial dihydrofolate reductase (method of Baccanari and Joyner)
# Setup conditions: read-out: IC50 values S.aureus 157/4696, IC50 determined by means of a graph
Value type: IC50

COc1cc(Cc2cnc(N)nc2N)cc(/C=C/C(=O)N2N=Cc3ccccc3[C@@H]2c2ccc(C)nc2)c1OC [H] | 0.4 nM
CCc1ccc(C2c3ccccc3C=NN2C(=O)/C=C/c2cc(Cc3cnc(N)nc3N)cc(OC)c2OC)cn1 (racemic) [J] | 0.2 nM
COc1cc(Cc2cnc(N)nc2N)cc(/C=C/C(=O)N2N=Cc3ccccc3C2c2ccc(O)cc2)c1OC (racemic) [D] | 3 nM

Now consider the entry below.
Short answer for CCCC1c2ccccc2C=NN1C(=O)/C=C/c1cc(Cc2cnc(N)nc2N)cc(OC)c1OC (racemic) [G] : IC50 was 6 nM
